Please provide measured glass transition temperature for the entries that follow.
Please respond with the number in °C and leave the unit unwritten.

glass transition temperature measured on *Oc1cccc(C(C)(C)c2ccc(Oc3ccc4c(c3)C(=O)N(c3ccc(Oc5cccc(Oc6ccc(N7C(=O)c8ccc(*)cc8C7=O)cc6)c5)cc3)C4=O)cc2)c1 (repeat unit) = 178.00

glass transition temperature measured on *Oc1ccc2c(c1)C(=O)N(c1ccc(Sc3ccc(N4C(=O)c5ccc(*)cc5C4=O)cc3)cc1)C2=O (repeat unit) = 269.00

glass transition temperature measured on *c1ccc(P(=O)(c2ccccc2)c2ccc(-n3c(=O)c4cc5c(=O)n(*)c(=O)c5cc4c3=O)cc2)cc1 (repeat unit) = 425.00

glass transition temperature measured on *c1ccc2c(c1)C(=O)N(c1ccc(OCC(F)(F)C(F)(F)C(F)(F)C(F)(F)C(F)(F)C(F)(F)C(F)(F)C(F)(F)C(F)(F)C(F)(F)F)c(N3C(=O)c4ccc(C(*)(C(F)(F)F)C(F)(F)F)cc4C3=O)c1)C2=O (repeat unit) = 189.00

glass transition temperature measured on *c1ccc2c(c1)C(=O)N(c1ccc(-c3ccc(N4C(=O)c5ccc(C(*)(C(F)(F)F)C(F)(F)F)cc5C4=O)cc3C)c(C)c1)C2=O (repeat unit) = 325.00

* * *

Classify as follows. Reported glass transition temperature greater than or equal to 70 °C: 1. Reported glass transition temperature below: -1.

input: Is glass transition temperature at least 70 °C? Consider *CCCCCCCCCn1c(=O)c2cc3c(=O)n(*)c(=O)c3cc2c1=O (repeat unit)
output: 1

input: Is glass transition temperature at least 70 °C? Consider *O[Si](*)(C)CCCCCCCCCCC(=O)Oc1ccc(C(=O)Oc2ccc(-c3ccc(OC(=O)c4ccc(OCC(C)CC)cc4)cc3)cc2)cc1 (repeat unit)
output: 1

input: Is glass transition temperature at least 70 °C? Consider *C(=O)c1cc2c(cc1Cl)C(=O)N(c1cc(N3C(=O)c4cc(*)c(Cl)cc4C3=O)cc(C(F)(F)F)c1)C2=O (repeat unit)
output: 1

input: Is glass transition temperature at least 70 °C? Consider *c1ccc(Oc2ccc(-c3c4ccccc4c(-c4ccc(Oc5ccc(-c6c7c(c(*)c8ccccc68)C(=O)N(c6ccccc6)C7=O)cc5)c(C(F)(F)F)c4)c4ccccc34)cc2C(F)(F)F)cc1 (repeat unit)
output: 1

input: Is glass transition temperature at least 70 °C? Consider *CC(C)CCC(C)CNC(=O)c1cc(C(=O)N*)cc(C(C)(C)C)c1 (repeat unit)
output: 1

input: Is glass transition temperature at least 70 °C? Consider *CC(O)COc1ccc(S(=O)(=O)c2ccc(OCC(O)COc3cccc(O*)c3)cc2)cc1 (repeat unit)
output: 1

input: Is glass transition temperature at least 70 °C? Consider *CC(*)OC(=O)/C=C/c1ccccc1 (repeat unit)
output: 1

input: Is glass transition temperature at least 70 °C? Consider *Oc1c(-c2ccccc2)cc(-c2cc(-c3ccccc3)c(OC(=O)CCCCCCCCC(*)=O)c(-c3ccccc3)c2)cc1-c1ccccc1 (repeat unit)
output: 1

input: Is glass transition temperature at least 70 °C? Consider *Oc1ccc(NC(=O)c2cc(NC(=O)c3ccc(OC(C)=O)cc3)cc(C(=O)Nc3ccc(Oc4ccc(C(C)(C)c5ccc(*)cc5)cc4)cc3)c2)cc1 (repeat unit)
output: 1

input: Is glass transition temperature at least 70 °C? Consider */C=C/C1CC(*)C2C(=O)N(CCCCCCCCC)C(=O)C12 (repeat unit)
output: -1

input: Is glass transition temperature at least 70 °C? Consider *c1ccc2oc(-c3ccc(-c4nc5cc(C(*)(C(F)(F)F)C(F)(F)F)ccc5o4)cn3)nc2c1 (repeat unit)
output: 1

input: Is glass transition temperature at least 70 °C? Consider */C=C/C1CC(*)C(C(=O)OC)C1C(=O)OC (repeat unit)
output: 1

input: Is glass transition temperature at least 70 °C? Consider *CC(*)(C)C(=O)O[Si](C)(C)C (repeat unit)
output: 1

input: Is glass transition temperature at least 70 °C? Consider *CCCCCCCCOC(=O)c1ccc(C(=O)O*)cc1 (repeat unit)
output: -1

input: Is glass transition temperature at least 70 °C? Consider *CCCCCSS* (repeat unit)
output: -1
